# Test: qHTS assay for MDR1-selective chemotherapeutics: Primary screen using the drug-selected MDR subline cells KB-V1; further: nearly all actives have a fitted effect of over 60% in size
# Run Parameters: KB-V1 MDR cells viability, CellTiter-Glo, 72 h; series mostly up to 46.1 µM
Among all 400,000 compounds or so, about 13,000 (3.2%) were called active. Roughly 18% stayed inconclusive and do not appear here. The call rests on the fitted dose curve; in most records, active means well fitted cell-killing curve with a large enough effect; inconclusive means small, poorly fitted or top-dose-only effect, or effect the other way; inactive means flat fitted curve, though single readings scatter. This excerpt belongs to a sample that is enriched for actives.
Returns: one label drawn from true (1) for active, false (0) for inactive

Compound	Assigned Category
Cc1onc(-c2ccccc2)c1C(=O)NNC(=S)NC(=O)c1ccc(F)cc1	false (0)

[ask] Assay outcome for COc1ccc(C(=O)NC(=S)NNC(=O)CCc2ccccc2)cc1 : what was it?
[reply] true (1)

[ask] State the result this test recorded for CCOC(=O)c1ccc2[nH]c3c(c2c1)CCCC3NC=O (stereo unspecified) .
[reply] false (0)

[ask] Fill in: this test's call for CCN(CC)S(=O)(=O)c1ccc(OC)c(NC(=O)CCc2c(C)noc2C)c1 is ___
[reply] false (0)

[ask] Dear all, I need the recorded test outcome for O=C(Nc1cccc2ccccc12)NC1CC1 , thank you.
[reply] false (0)

[ask] Called result for COc1ccc(C(=O)NNC(=S)NC(=O)c2ccccc2)cc1
[reply] false (0)
